# System: Staphylococcus sp.
# experimental-details: in vitro antibacterial evaluation, MIC by broth dilution
# Format: cell-based
# applied-conditions: broth dilution, 18 hours at 35° C.
property: MIC Staphylococcus aureus (GC 3053) (µg/mL)
Numbers only; they are read as µg/mL.

Worked cases, MIC Staphylococcus aureus (GC 3053) given:
CC(c1ccccc1)C1NC(=O)CNC(=O)C(CO)NC(=O)C(C(O)C2CNC(=N)N2C2OC(CO)C(O)C(O)C2O)NC(=O)C(C(O)C2CNC(=N)N2)NC(=O)C(Cc2ccc(OC3OC(CO)C(OC4OC5COC(CC67CC8CC(CC(C8)C6)C7)OC5C(O)C4O)C(O)C3O)cc2)NC1=O (stereo not shown) [Example 129]; 2
CC(c1ccccc1)C1NC(=O)CNC(=O)C(CO)NC(=O)C(C(O)C2CNC(=N)N2C2OC(CO)C(O)C(O)C2O)NC(=O)C(C(O)C2CNC(=N)N2)NC(=O)C(Cc2ccc(OC3OC(CO)C(OC4OC5COC(Cc6ccc(F)cc6)OC5C(O)C4O)C(O)C3O)cc2)NC1=O (stereo not shown) [Example 121]; 1

Note: attention shifts to another entry.
Tell me reported MIC Staphylococcus aureus (GC 3053) for CC(c1ccccc1)C1NC(=O)CNC(=O)C(CO)NC(=O)C(C(O)C2CNC(=N)N2C2OC(CO)C(O)C(O)C2O)NC(=O)C(C(O)C2CNC(=N)N2)NC(=O)C(Cc2ccc(OC3OC(CO)C(OC4OC(COCC=Cc5ccc(N(C)C)cc5)C(O)C(O)C4O)C(O)C3O)cc2)NC1=O (stereo not shown) [Example 243] , tested with Staphylococcus sp..
64

====

# System: Staphylococcus sp.
# experimental-details: in vitro antibacterial evaluation, MIC by broth dilution
# Type: cell-based
# applied-conditions: broth dilution, 18 hours at 35° C.; strain GC 3051
Numbered stars: 1 amine (or outer) side, 2 acyl side, 3 side chain; on linkers, the order of the positions; unused ones are H or OH. Square brackets hold non-standard residues; d marks the D form. Peptide text beside a SMILES is read from it. ξ: configuration not given here. X6 = N=C1NCC(CC(N[*:1])C(=O)[*:2])N1C1OC(CO)C(O)C(O)C1O; Tyr(3-NO2) = N[CH](Cc1ccc(O)c([N+](=O)[O-])c1)C(=O)O; X7 = N=C1NCC(CC(N[*:1])C(=O)[*:2])N1; ξPhe(βξ-Me) = CC(c1ccccc1)C(N)C(=O)O
Rule for this label: TRUE means MIC Staphylococcus aureus (GC 3051) is less than 2 µg/mL; FALSE means MIC Staphylococcus aureus (GC 3051) is at least 2 µg/mL.

CC(c1ccccc1)C1NC(=O)CNC(=O)C(CO)NC(=O)C(CC2CNC(=N)N2C2OC(CO)C(O)C(O)C2O)NC(=O)C(CC2CNC(=N)N2)NC(=O)C(Cc2ccc(O)c([N+](=O)[O-])c2)NC1=O (stereo not drawn) [Example 10] (cyclo(G[ξPhe(βξ-Me)][Tyr(3-NO2)][X7][X6]S); configuration not given here); FALSE
CC(c1ccccc1)C1NC(=O)CNC(=O)C(CO)NC(=O)C(C(O)C2CNC(=N)N2C2OC(CO)C(O)C(O)C2O)NC(=O)C(C(O)C2CNC(=N)N2)NC(=O)C(Cc2ccc(OC3OC(CO)C(OC4OC5COC(C6CCCC6)OC5C(O)C4O)C(O)C3O)cc2)NC1=O (stereo not drawn); TRUE
CC(c1ccccc1)C1NC(=O)CNC(=O)C(CO)NC(=O)C(C(O)C2CNC(=N)N2C2OC(CO)C(O)C(O)C2O)NC(=O)C(C(O)C2CNC(=N)N2)NC(=O)C(Cc2ccc(OC3OC(CO)C(OC4OC5COC(c6ccsc6)OC5C(O)C4O)C(O)C3O)cc2)NC1=O (stereo not drawn); TRUE
COC1CCC2(C)C(CCC3C2CCC2(C)C(C(C)CCC4OCC5OC(OC6C(CO)OC(Oc7ccc(CC8NC(=O)C(C(C)c9ccccc9)NC(=O)CNC(=O)C(CO)NC(=O)C(C(O)C9CNC(=N)N9C9OC(CO)C(O)C(O)C9O)NC(=O)C(C(O)C9CNC(=N)N9)NC8=O)cc7)C(O)C6O)C(O)C(O)C5O4)CCC32)C1 (stereo not drawn); FALSE
CC(C)C(=O)OCC1OC(OC2C(CO)OC(Oc3ccc(CC4NC(=O)C(Cc5ccccc5)NC(=O)CNC(=O)C(CO)NC(=O)C(C(O)C5CNC(=N)N5C5OC(CO)C(O)C(O)C5O)NC(=O)C(C(O)C5CNC(=N)N5)NC4=O)cc3)C(O)C2O)C(O)C(O)C1O (stereo not drawn) [Example 283a]; FALSE

# TODO verify MIC Staphylococcus aureus (GC 3051) < 2 µg/mL strictly for this compound: CC(c1ccccc1)C1NC(=O)CNC(=O)C(CO)NC(=O)C(CC2CNC(=N)N2C2OC(CO)C(O)C(O)C2O)NC(=O)C(CC2CNC(=N)N2)NC(=O)C(Cc2ccc(OC3OC(CO)C(OC4OC(CO)C(OCc5ccc(OCc6ccccc6)cc5)C(O)C4O)C(O)C3O)cc2)NC1=O (stereo not drawn) [Example 246a]
TRUE

Does this compound meet the criterion MIC Staphylococcus aureus (GC 3051) < 2 µg/mL? CC(c1ccccc1)C1NC(=O)CNC(=O)C(CO)NC(=O)C(C(O)C2CNC(=N)N2C2OC(CO)C(O)C(O)C2O)NC(=O)C(C(O)C2CNC(=N)N2)NC(=O)C(Cc2ccc(OC3OC(CO)C(OC4OC5COC(C6CC=CCC6)OC5C(O)C4O)C(O)C3O)cc2)NC1=O (stereo not drawn)
TRUE

MIC Staphylococcus aureus (GC 3051) under 2 µg/mL? Item: COc1ccc(Oc2cccc(C3OCC4OC(OC5C(CO)OC(Oc6ccc(CC7NC(=O)C(C(C)c8ccccc8)NC(=O)CNC(=O)C(CO)NC(=O)C(C(O)C8CNC(=N)N8C8OC(CO)C(O)C(O)C8O)NC(=O)C(C(O)C8CNC(=N)N8)NC7=O)cc6)C(O)C5O)C(O)C(O)C4O3)c2)cc1 (stereo not drawn)
TRUE

Lab note: confirm whether the reported MIC Staphylococcus aureus (GC 3051) for this compound is below 2 µg/mL, equality not counting. compound: CC(c1ccccc1)[C@@H]1NC(=O)CNC(=O)[C@H](CO)NC(=O)[C@H](C(O)C2CNC(=N)N2)NC(=O)[C@H](C(O)C2CNC(=N)N2)NC(=O)[C@H](Cc2ccc(O)cc2)NC1=O (stereo partly drawn) [Example 280b]
FALSE

Please indicate whether the reported MIC Staphylococcus aureus (GC 3051) of CC(c1ccccc1)C1NC(=O)CNC(=O)C(CO[Si](C)(C)C(C)(C)C)NC(=O)C(C(O)C2CNC(=N)N2C2OC3COC(C)(C)OC3C3OC(C)(C)OC32)NC(=O)C(C(O)C2CNC(=N)N2)NC(=O)C(Cc2ccc(O)cc2)NC1=O (stereo not drawn) is strictly below 2 µg/mL.
FALSE

Bench note: check whether COc1cccc(C2OC3C(OC4C(CO)OC(Oc5ccc(CC6NC(=O)C(C(C)c7ccccc7)NC(=O)CNC(=O)C(CO)NC(=O)C(C(O)C7CNC(=N)N7C7OC(CO)C(O)C(O)C7O)NC(=O)C(C(O)C7CNC(=N)N7)NC6=O)cc5)C(O)C4O)OC(CO)C(O)C3O2)c1 (single isomer, unassigned) [Example 137b] shows MIC Staphylococcus aureus (GC 3051) below 2 µg/mL
FALSE

Item CC(c1ccccc1)C1NC(=O)CNC(=O)C(CO)NC(=O)C(C(O)C2CNC(=N)N2C2OC(CO)C(O)C(O)C2O)NC(=O)C(C(O)C2CNC(=N)N2)NC(=O)C(Cc2ccc(OC3OC(CO)C(OC4OC(COCc5cccs5)C(O)C(O)C4O)C(O)C3O)cc2)NC1=O (stereo not drawn) : MIC Staphylococcus aureus (GC 3051) beneath 2 µg/mL, strictly?
FALSE
